Listing: pKi of selected compounds
Molecular target: T315I mutant of human Abl (Homo sapiens, UniProt P00519, T315I)
Experiment: Mutant Abl Kinase (T315I) Activity Inhibition Assay (Upstate, radiometric)
pKi: −log10 of the molar value.

CCC(=O)Nc1ccc(Sc2nc(Nc3cc(C)n[nH]3)cc(N3CCC(NC(C)(C)C)CC3)n2)cc1 [Compound I-7] : > 6.70
Cc1cc(Nc2cc(N3CCC(N4CCCC4)CC3)nc(Sc3ccc(NC(=O)CC(F)(F)F)cc3)n2)[nH]n1 [Compound I-68] : > 6.70
Cc1cc(Nc2cc(N3CCC(O)CC3)nc(Sc3ccc(NC(=O)CC(F)(F)F)cc3)n2)[nH]n1 [Compound I-80] : > 6.70

// lookup pKi for Cc1cc(Nc2cc(N3CCC(N4CCCC4)CC3)nc(Sc3ccc(NC(=O)C4(C(F)(F)F)CC4)cc3)n2)[nH]n1 [Compound I-65]
> 6.70

// lookup pKi for CCC(=O)Nc1ccc(Sc2nc(Nc3cc(C)n[nH]3)cc(N3CCC(N4CCCC4)CC3)n2)cc1 [Compound I-41]
> 6.70

// lookup pKi for Cc1cc(Nc2cc(N3CC4CCCN(C)C4C3)nc(Sc3ccc(NC(=O)CC(F)(F)F)cc3)n2)[nH]n1 (stereo not shown) [Compound I-69]
> 6.70

// lookup pKi for CCC(=O)Nc1ccc(Sc2nc(Nc3cc(C)n[nH]3)cc(N3CC[C@H](N4CCCC4)C3)n2)cc1 [Compound I-55]
6.30 to 6.70

Data origin: patent US20100137305A1
